- System: 323965-272-R-J2-PDC complex spheroid growth, % test/control
- Protocol Details: Anticancer human tumor 323965-272-R-J2-PDC patient-derived pancreatic carcinoma cell line growth inhibition [Asc]
- Condition Label: second compound 0.1 µM; first compound 0.316 µM; active compounds read low
Value Type: viability, T/C (%)
Use % as the unit, but write only the number.

1) C#Cc1c(F)ccc2cc(O)cc(-c3ncc4c(N5CC6CCC(C5)N6)nc(OCC56CCCN5CC(F)C6)nc4c3F)c12 (configuration not stated) + Cc1c(S(C)(=O)=O)c(-c2cc(F)cc(N3CCN(c4ccc(NS(=O)(=O)c5ccc(NC(CCN6CCC(C(=O)OCCCP(=O)(O)O)CC6)CSc6ccccc6)c(S(=O)(=O)C(F)(F)F)c5)cc4)CC3)c2)c(-c2ccc(Cl)cc2)n1C(C)C: 93.2
2) C#Cc1c(F)ccc2cc(O)cc(-c3ncc4c(N5CC6CCC(C5)N6)nc(OCC56CCCN5CC(F)C6)nc4c3F)c12 (configuration not stated) + CNC(C)C(=O)NC1CN(S(=O)(=O)c2cccc(S(=O)(=O)N3CCC4CCC(C(=O)NC(c5ccccc5)c5ccccc5)N4C(=O)C(NC(=O)C(C)NC)C3)c2)CCC2CCC(C(=O)NC(c3ccccc3)c3ccccc3)N2C1=O: 95.4
3) COc1c(OCCCN2CCOCC2)ccc2c3n(c(=NC(=O)c4cnc(N)nc4)nc12)CCN3 + CNC(C)C(=O)NC1CN(S(=O)(=O)c2cccc(S(=O)(=O)N3CCC4CCC(C(=O)NC(c5ccccc5)c5ccccc5)N4C(=O)C(NC(=O)C(C)NC)C3)c2)CCC2CCC(C(=O)NC(c3ccccc3)c3ccccc3)N2C1=O: 29.9

response.value for CCN1CCN(Cc2ccc(Nc3ncc(F)c(-c4cc(F)c5nc(C)n(C(C)C)c5c4)n3)nc2)CC1 + Cc1c(S(C)(=O)=O)c(-c2cc(F)cc(N3CCN(c4ccc(NS(=O)(=O)c5ccc(NC(CCN6CCC(C(=O)OCCCP(=O)(O)O)CC6)CSc6ccccc6)c(S(=O)(=O)C(F)(F)F)c5)cc4)CC3)c2)c(-c2ccc(Cl)cc2)n1C(C)C (field: viability, T/C) = 70.7

response.value for C=CC(=O)N1CCN(c2nc(=O)n(-c3c(C)ccnc3C(C)C)c3nc(-c4c(O)cccc4F)c(F)cc23)C(C)C1 (configuration not stated) + Cc1c(S(C)(=O)=O)c(-c2cc(F)cc(N3CCN(c4ccc(NS(=O)(=O)c5ccc(NC(CCN6CCC(C(=O)OCCCP(=O)(O)O)CC6)CSc6ccccc6)c(S(=O)(=O)C(F)(F)F)c5)cc4)CC3)c2)c(-c2ccc(Cl)cc2)n1C(C)C (field: viability, T/C) = 68

response.value for COc1c(OCCCN2CCOCC2)ccc2c3n(c(=NC(=O)c4cnc(N)nc4)nc12)CCN3 + Cc1c(S(C)(=O)=O)c(-c2cc(F)cc(N3CCN(c4ccc(NS(=O)(=O)c5ccc(NC(CCN6CCC(C(=O)OCCCP(=O)(O)O)CC6)CSc6ccccc6)c(S(=O)(=O)C(F)(F)F)c5)cc4)CC3)c2)c(-c2ccc(Cl)cc2)n1C(C)C (field: viability, T/C) = 42.4

response.value for O=C(c1cc(Cc2n[nH]c(=O)c3ccccc23)ccc1F)N1CCN(C(=O)C2CC2)CC1 + Cc1c(S(C)(=O)=O)c(-c2cc(F)cc(N3CCN(c4ccc(NS(=O)(=O)c5ccc(NC(CCN6CCC(C(=O)OCCCP(=O)(O)O)CC6)CSc6ccccc6)c(S(=O)(=O)C(F)(F)F)c5)cc4)CC3)c2)c(-c2ccc(Cl)cc2)n1C(C)C (field: viability, T/C) = 98.1

response.value for C=CC(=O)N1CCN(c2nc(=O)n(-c3c(C)ccnc3C(C)C)c3nc(-c4c(O)cccc4F)c(F)cc23)C(C)C1 (configuration not stated) + CNC(C)C(=O)NC1CN(S(=O)(=O)c2cccc(S(=O)(=O)N3CCC4CCC(C(=O)NC(c5ccccc5)c5ccccc5)N4C(=O)C(NC(=O)C(C)NC)C3)c2)CCC2CCC(C(=O)NC(c3ccccc3)c3ccccc3)N2C1=O (field: viability, T/C) = 66.7

response.value for O=C(c1ccc(F)c(F)c1Nc1ccc(I)cc1F)N1CC(O)([C@@H]2CCCCN2)C1 + CNC(C)C(=O)NC1CN(S(=O)(=O)c2cccc(S(=O)(=O)N3CCC4CCC(C(=O)NC(c5ccccc5)c5ccccc5)N4C(=O)C(NC(=O)C(C)NC)C3)c2)CCC2CCC(C(=O)NC(c3ccccc3)c3ccccc3)N2C1=O (field: viability, T/C) = 23.6

response.value for O=C(c1ccc(F)c(F)c1Nc1ccc(I)cc1F)N1CC(O)([C@@H]2CCCCN2)C1 + Cc1c(S(C)(=O)=O)c(-c2cc(F)cc(N3CCN(c4ccc(NS(=O)(=O)c5ccc(NC(CCN6CCC(C(=O)OCCCP(=O)(O)O)CC6)CSc6ccccc6)c(S(=O)(=O)C(F)(F)F)c5)cc4)CC3)c2)c(-c2ccc(Cl)cc2)n1C(C)C (field: viability, T/C) = 30

response.value for CNC(C)C(=O)NC1CN(S(=O)(=O)c2cccc(S(=O)(=O)N3CCC4CCC(C(=O)NC(c5ccccc5)c5ccccc5)N4C(=O)C(NC(=O)C(C)NC)C3)c2)CCC2CCC(C(=O)NC(c3ccccc3)c3ccccc3)N2C1=O (configuration not stated) + Cc1c(S(C)(=O)=O)c(-c2cc(F)cc(N3CCN(c4ccc(NS(=O)(=O)c5ccc(NC(CCN6CCC(C(=O)OCCCP(=O)(O)O)CC6)CSc6ccccc6)c(S(=O)(=O)C(F)(F)F)c5)cc4)CC3)c2)c(-c2ccc(Cl)cc2)n1C(C)C (field: viability, T/C) = 93

response.value for C=C(F)C(=O)N1CCN(c2nc(OCC3CCCN3C)nc3c2CCN(c2cccc4cccc(Cl)c24)C3)CC1CC#N (configuration not stated) + CNC(C)C(=O)NC1CN(S(=O)(=O)c2cccc(S(=O)(=O)N3CCC4CCC(C(=O)NC(c5ccccc5)c5ccccc5)N4C(=O)C(NC(=O)C(C)NC)C3)c2)CCC2CCC(C(=O)NC(c3ccccc3)c3ccccc3)N2C1=O (field: viability, T/C) = 48.5

----------
- Tested on: 323965-272-R-J2-PDC complex spheroid growth, % test/control
- Protocol Details: Anticancer human tumor 323965-272-R-J2-PDC cell line growth inhibition [Asc];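 note: compound exposure lasted 7 days starting three days after spheroid seeding; 100% = DMSO vehicle control wells with viability set relative to vehicle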
- Condition Label: second compound 0.1 µM; first compound 3.16 µM; active compounds read low
Each record here notes measured viability, T/C.
Use % as the unit, but write only the number.

1) C=C(F)C(=O)N1CCN(c2nc(OCC3CCCN3C)nc3c2CCN(c2cccc4cccc(Cl)c24)C3)CC1CC#N (stereo not drawn) + CNC(C)C(=O)NC1CN(S(=O)(=O)c2cccc(S(=O)(=O)N3CCC4CCC(C(=O)NC(c5ccccc5)c5ccccc5)N4C(=O)C(NC(=O)C(C)NC)C3)c2)CCC2CCC(C(=O)NC(c3ccccc3)c3ccccc3)N2C1=O: 69.9
2) C=C(F)C(=O)N1CCN(c2nc(OCC3CCCN3C)nc3c2CCN(c2cccc4cccc(Cl)c24)C3)CC1CC#N (stereo not drawn) + Cc1c(S(C)(=O)=O)c(-c2cc(F)cc(N3CCN(c4ccc(NS(=O)(=O)c5ccc(NC(CCN6CCC(C(=O)OCCCP(=O)(O)O)CC6)CSc6ccccc6)c(S(=O)(=O)C(F)(F)F)c5)cc4)CC3)c2)c(-c2ccc(Cl)cc2)n1C(C)C: 72.2

# ---- query molecule ----
response.value for C#Cc1c(F)ccc2cc(O)cc(-c3ncc4c(N5CC6CCC(C5)N6)nc(OCC56CCCN5CC(F)C6)nc4c3F)c12 (stereo not drawn) + Cc1c(S(C)(=O)=O)c(-c2cc(F)cc(N3CCN(c4ccc(NS(=O)(=O)c5ccc(NC(CCN6CCC(C(=O)OCCCP(=O)(O)O)CC6)CSc6ccccc6)c(S(=O)(=O)C(F)(F)F)c5)cc4)CC3)c2)c(-c2ccc(Cl)cc2)n1C(C)C (field: viability, T/C) = 75.7

----------
- System: 323965-272-R-J2-PDC complex spheroid growth, % test/control
- Protocol Details: Anticancer human tumor 323965-272-R-J2-PDC cell line growth inhibition [Asc];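 note: compound exposure lasted 7 days starting three days after spheroid seeding; 100% = DMSO vehicle control wells with viability set relative to vehicle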
- Condition Label: second compound 3.16 µM; first compound 0.01 µM; active compounds read low
Each record here notes measured viability, T/C.
Use % as the unit, but write only the number.

Example cases with answers are listed next.
1. COc1c(OCCCN2CCOCC2)ccc2c3n(c(=NC(=O)c4cnc(N)nc4)nc12)CCN3 + Cc1c(S(C)(=O)=O)c(-c2cc(F)cc(N3CCN(c4ccc(NS(=O)(=O)c5ccc(NC(CCN6CCC(C(=O)OCCCP(=O)(O)O)CC6)CSc6ccccc6)c(S(=O)(=O)C(F)(F)F)c5)cc4)CC3)c2)c(-c2ccc(Cl)cc2)n1C(C)C: 71.5
2. CCN1CCN(Cc2ccc(Nc3ncc(F)c(-c4cc(F)c5nc(C)n(C(C)C)c5c4)n3)nc2)CC1 + Cc1c(S(C)(=O)=O)c(-c2cc(F)cc(N3CCN(c4ccc(NS(=O)(=O)c5ccc(NC(CCN6CCC(C(=O)OCCCP(=O)(O)O)CC6)CSc6ccccc6)c(S(=O)(=O)C(F)(F)F)c5)cc4)CC3)c2)c(-c2ccc(Cl)cc2)n1C(C)C: 86.2

response.value for CNC(C)C(=O)NC1CN(S(=O)(=O)c2cccc(S(=O)(=O)N3CCC4CCC(C(=O)NC(c5ccccc5)c5ccccc5)N4C(=O)C(NC(=O)C(C)NC)C3)c2)CCC2CCC(C(=O)NC(c3ccccc3)c3ccccc3)N2C1=O (stereo not drawn) + Cc1c(S(C)(=O)=O)c(-c2cc(F)cc(N3CCN(c4ccc(NS(=O)(=O)c5ccc(NC(CCN6CCC(C(=O)OCCCP(=O)(O)O)CC6)CSc6ccccc6)c(S(=O)(=O)C(F)(F)F)c5)cc4)CC3)c2)c(-c2ccc(Cl)cc2)n1C(C)C (field: viability, T/C) = 70.9
